- assayed-system: Sepiapterin reductase (Homo sapiens, UniProt P35270)
- Sequence (P35270 whole entry): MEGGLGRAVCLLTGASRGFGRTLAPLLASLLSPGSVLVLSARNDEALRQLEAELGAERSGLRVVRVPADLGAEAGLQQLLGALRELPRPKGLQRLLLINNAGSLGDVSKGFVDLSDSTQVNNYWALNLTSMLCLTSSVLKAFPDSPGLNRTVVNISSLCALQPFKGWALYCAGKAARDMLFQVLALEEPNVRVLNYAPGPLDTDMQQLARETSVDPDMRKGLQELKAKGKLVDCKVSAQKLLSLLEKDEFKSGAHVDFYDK
- method-description: LC/MS assay: To screen for SPR inhibition, a biochemical assay based on LC/MS (and chromogenic) read-out has been developed. The LC/MS assay monitors the product formation (L-biopterin) and the chromogenic assay measures OD at 420 nm.N-methoxyacetyl serotonin was used as a reference compound (positive control). […] (2) Add 40 uL enzyme/assay buffer.
readout-kind: IC50 (nM)
Answer with a number only, understood to be in nM.

**Query** Which IC50 reading was recorded for the molecule COCC(=O)NCCc1c[nH]c2ccc(NS(C)(=O)=O)cc12 ?
**Result** 1000

Attribution: ChEMBL document CHEMBL3886312
